Values were extracted from patent US9482924B2.

# test-description: Measurement of relative permittivity
# Assay type: physicochemical
# protocol-conditions: pigment itself, extrapolated from 5, 7.5 and 10% by mass solutions in n-hexane; 20° C., 40% RH, 1 kHz
# Description: The relative permittivity is a value obtained by injecting the colored composition into a glass cell having a cell gap of 10 μm to which an indium tin oxide (ITO) transparent electrode is attached and measuring, at 20° C. and 40% RH, the electric capacitance of the cell with the colored composition thus-obtained using a TYPE 2353LCR METER (measuring frequency: 1 kHz) manufactured by NF Co., Ltd. […]
reported-metric: Relative permittivity

CCCCCCCCNC(=O)C1=CC(=Nc2ccc(N(CCCCCCCC)CCCCCCCC)cc2)C=C(C)C1=O ... 6
CCCCCCCCCCCCCCCCNC(=O)C1=CC(=Nc2ccc(N(CC)CC)cc2CC)c2ccccc2C1=O ... 4.4
CCCCCCCCCCCCCCCCCCNC(=O)C1=CC(=Nc2ccc(N(CC)CC)cc2OC)c2ccccc2C1=O ... 4.7
CCCCCCCCN(CCCCCCCC)c1ccc(N=C2C(=O)N(c3ccccc3)N=C2C)c(C)c1 ... 8.6
CCCCCCCCOc1cc(N(CCCC)CCCC)ccc1N=C1C(=O)ON=C1c1ccccc1 ... 8.8
CCCCCCCCN(CCCCCCCC)c1ccc(N=C2C(C(C)(C)C)=Nn3nc(-c4ccccc4)nc32)c(C)c1 ... 6.7
CCCCCCCCN1CCc2cc(/N=C3/C(C)=Nn4nc(C(C)CNC(=O)C(CCCCCC)Oc5ccc(C(C)(C)CC)cc5C(C)(C)CC)nc43)ccc21 (stereo not shown) ... 6.2
